Below is a list of entries, each paired with its recorded Population Fragmented Nuclei (%) value.
System: Fibroblast
Experiment: Multiplex assay against human fibroblast
Format: toxicity, cell-based
Conditions: 24 h, 10 µM, compound concentration 10 uM, replicate 2
Answer in %, number only, no unit symbol.

| COMPOUND | TEST SYSTEM | Population Fragmented Nuclei (%) |
| --- | --- | --- |
| Cc1ccc(C(C)(O)c2nc3ccccc3s2)c(C)c1 (centres undefined) | Fibroblast | 27 |
| COc1cc(NC(=O)CCN2CCC(OC(=O)Nc3ccccc3-c3ccccc3)CC2)c(Cl)cc1CNC[C@H](O)c1ccc(O)c2[nH]c(=O)ccc12 | Fibroblast | 46 |
| CCOc1c2c(c(OCC)c3ncccc13)CN(c1ccc(CS(=O)(=O)NC(=O)Cc3ccccc3OC)cc1C)C2=O | Fibroblast | 25 |

Then there is this compound:
# return Population Fragmented Nuclei (%) of CC(=O)NCCc1c(Cc2ccccc2)[nH]c2ccccc12 (system: Fibroblast)
27

====

Below is a list of entries, each paired with its recorded Population Tubulin-Different-Phenotype (%) value.
Test system: Fibroblast
Assay: Multiplex assay against human fibroblast
Format: toxicity, cell-based
Settings: 12 h, 1 µM, compound concentration 1 uM, replicate 1
Answer in %, number only, no unit symbol.

# count of solved cases: 3
| COMPOUND | RECORDED RESULT |
| --- | --- |
| Cc1ccc(F)cc1C(=O)Nc1ccc(C(=O)N2Cc3cccn3Cc3ccccc32)c(Cl)c1 [LIXIVAPTAN] | 28 |
| CC(C)(C)c1ccc(S(=O)(=O)Nc2ccc(Cl)cc2C(=O)c2cc[n+]([O-])cc2)cc1 [VERCIRNON] | 20 |
| CSCC[C@H](NC=O)C(=O)N[C@@H](CC(C)C)C(=O)N[C@@H](Cc1ccccc1)C(=O)O | 26 |

Annotate the compound CCOc1c2c(c(OCC)c3ncccc13)CN(c1ccc(CS(=O)(=O)NC(=O)Cc3ccccc3OC)cc1C)C2=O with its measured Population Tubulin-Different-Phenotype (%).
23

Annotate the compound CN(C)c1ccnc2sc3c(=O)n(N4CCCCCC4)cnc3c12 with its measured Population Tubulin-Different-Phenotype (%).
29

Annotate the compound CN1CCN(c2nc3cc(C(F)(F)F)ccc3n3cccc23)CC1.O=C(O)/C=C\C(=O)O.O=C(O)/C=C\C(=O)O with its measured Population Tubulin-Different-Phenotype (%).
27

Annotate the compound COc1c(C)cc(NC(=O)c2nn(Cc3ccc(F)cc3)c3c2CN(C(=O)c2ccc[nH]2)C[C@]3(C)C(N)=O)cc1C with its measured Population Tubulin-Different-Phenotype (%).
64

Annotate the compound Cl.Clc1ccc2nsnc2c1NC1=NCCN1 [TIZANIDINE HYDROCHLORIDE] with its measured Population Tubulin-Different-Phenotype (%).
21

Annotate the compound CCCC(CCC)C(=O)O [VALPROIC ACID] with its measured Population Tubulin-Different-Phenotype (%).
27

====

System: HEK-293T
Assay: Multiplex assay against HEK293T
Format: toxicity, cell-based
Conditions: human, 48 h, 10 µM, compound concentration 10 uM, replicate 2
Classification field: Criterion met = Total Cell Count at or over 400; Criterion not met = Total Cell Count under 400.

Some solved cases for reference:
| COMPOUND | TEST SYSTEM | QUALITATIVE LABEL |
| --- | --- | --- |
| CCCC(CCC)C(=O)O | HEK-293T | Criterion met |
| c1cc(OCCCN2CCCCC2)ccc1CN1CCCCC1 | HEK-293T | Criterion met |
| O=C(O)c1cc2ccccc2c(Cc2c(O)c(C(=O)O)cc3ccccc23)c1O | HEK-293T | Criterion met |
| Cc1ccc(C(C)(O)c2nc3ccccc3s2)c(C)c1 (configuration not stated) | HEK-293T | Criterion met |
| CSc1ccccc1N1CCN(CCCCCC(=O)NC2CCCc3ccccc32)CC1.Cl (configuration not stated) | HEK-293T | Criterion not met |
| COc1ccc2c(c1)C(C(=O)N(Cc1ccc(N(C)C)cc1)c1ccc(C(C)C)cc1)CCC2.Cl (configuration not stated) | HEK-293T | Criterion met |
| CN(C)c1ccnc2sc3c(=O)n(N4CCCCCC4)cnc3c12 | HEK-293T | Criterion met |
| O=S(=O)(c1ccccc1)c1cnc2c(N3CCNCC3)cccc2c1 [INTEPIRDINE] | HEK-293T | Criterion met |
| C[C@@H]1C[C@H]2[C@@H]3CCC4=CC(=O)C=C[C@]4(C)[C@@]3(F)[C@@H](O)C[C@]2(C)[C@@]1(O)C(=O)CO | HEK-293T | Criterion met |
| CCCN1CCC[C@@H]2Cc3n[nH]cc3C[C@H]21.Cl [QUINPIROLE HYDROCHLORIDE] | HEK-293T | Criterion met |

Decide: is the reported value of Total Cell Count for COc1cc(NC(=O)CCN2CCC(OC(=O)Nc3ccccc3-c3ccccc3)CC2)c(Cl)cc1CNC[C@H](O)c1ccc(O)c2[nH]c(=O)ccc12 equal to or greater than 400?
Criterion met

Decide: is the reported value of Total Cell Count for CC(C)(C)c1ccc(S(=O)(=O)Nc2ccc(Cl)cc2C(=O)c2cc[n+]([O-])cc2)cc1 equal to or greater than 400?
Criterion met

Decide: is the reported value of Total Cell Count for O=C(O)Cc1ccccc1Nc1c(Cl)cccc1Cl equal to or greater than 400?
Criterion met

Decide: is the reported value of Total Cell Count for CC1(COc2ccc3c(c2)ncn3-c2ccc3cccc(N4CCC(N)CC4)c3n2)COC1 equal to or greater than 400?
Criterion not met

Decide: is the reported value of Total Cell Count for CC[C@H]1OC(=O)[C@H](C)[C@@H](O[C@H]2C[C@@](C)(OC)[C@@H](O)[C@H](C)O2)[C@H](C)[C@@H](O[C@@H]2O[C@H](C)C[C@H](N(C)C)[C@H]2O)[C@@]2(C)CC(C)=C(O2)[C@H](C)[C@@H](O)[C@]1(C)O equal to or greater than 400?
Criterion not met

Decide: is the reported value of Total Cell Count for O=C1COc2nccc(-c3ccccc3F)c2CN1Cc1cc(C(F)(F)F)cc(C(F)(F)F)c1 equal to or greater than 400?
Criterion met

Decide: is the reported value of Total Cell Count for Cc1ccccc1C(=O)Nc1ccc(C(=O)N2CCCC(N(C)C)c3ccccc32)cc1.Cl (configuration not stated) equal to or greater than 400?
Criterion not met
